B1: HDV Ribozyme (parent)
chain: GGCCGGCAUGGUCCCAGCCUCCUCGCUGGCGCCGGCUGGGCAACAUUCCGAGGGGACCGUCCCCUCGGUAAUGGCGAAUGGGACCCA

# Variants of: B1
# method.notes: self-cleavage, relative activity (ratio to wild type); higher = more cleavage; co-transcriptional
I'd appreciate it if you could supply self-cleavage values for the items below.
I only need the number, thanks.

Query block: Name the recorded self-cleavage for C7G U27A .
Result block: 0.217

Query block: Try the variant U23G G73A
Result block: 0.259

Query block: Try the variant C21U C33G
Result block: 0.104

Query block: Try the variant C48G C86A
Result block: 1.09

Query block: Try the variant C24A U47A
Result block: 0.554

Query block: Try the variant C33U G50C
Result block: 0.786

Query block: Try the variant U23A C36G
Result block: 0.17

Query block: Try the variant C58U U79C
Result block: 0.38

Query block: Try the variant C7G U47A
Result block: 0

Query block: Try the variant C36A C63A
Result block: 0.237

Query block: Try the variant U37G C75A
Result block: 0.156

Query block: Try the variant C57G U60A
Result block: 0.987

Query block: Try the variant C7G C62G
Result block: 0.111

Query block: Try the variant G53C A71C
Result block: 0.356

Query block: Try the variant G5C G73U
Result block: 0.0504

Query block: Try the variant C13G C85A
Result block: 0

Query block: Try the variant U37G G40U
Result block: 0.203

Query block: Try the variant C3G C57A
Result block: 0.802

Query block: Try the variant U9G G29U
Result block: 0

Query block: Try the variant U9G A42G
Result block: 0.727

Query block: Try the variant G53U A77G
Result block: 0.8

Query block: Try the variant G11U C44U
Result block: 0.193

Query block: Try the variant C19U C24A
Result block: 0.0791

Query block: Try the variant C41G A70G
Result block: 0.929

Query block: Try the variant A45C A87G
Result block: 0.554

Query block: Try the variant G29C C58U
Result block: 0.104

Query block: Try the variant G10U G54A
Result block: 0.735

Query block: Try the variant A16G C30G
Result block: 0.122

Query block: Try the variant C32U G68C
Result block: 0.803

Query block: Try the variant G29C U47C
Result block: 0.0554

Query block: Try the variant G11A U47A
Result block: 0.249

Query block: Try the variant G39A C85U
Result block: 0.465

Query block: Try the variant G17U C62G
Result block: 0.492

Query block: Try the variant G2C U46G
Result block: 0.0959

Query block: Try the variant G10C C63G
Result block: 0.852

Query block: Try the variant G53U U65C
Result block: 0.819

Query block: Try the variant C13U C24U
Result block: 0.262

Query block: Try the variant G17C U47C
Result block: 0.519

Query block: Try the variant A45G C63U
Result block: 0.956

Query block: Try the variant G52U A70C
Result block: 0.577

Query block: Try the variant G38U G68A
Result block: 0.163

Query block: Try the variant G2U C58U
Result block: 0.109

Query block: Try the variant U37C U47C
Result block: 0.791

Query block: Try the variant C15A G53A
Result block: 0.866

Query block: Try the variant U12G G55A
Result block: 0.703

Query block: Try the variant G5U C24G
Result block: 0

Query block: Try the variant U47G C49G
Result block: 0.87

Query block: Try the variant G35U G55A
Result block: 0.477

Query block: Try the variant C26G U69C
Result block: 1.26

Query block: Try the variant C48A G54C
Result block: 1.17

Query block: Try the variant C22G A83G
Result block: 0.126

Query block: Try the variant C13G C19U
Result block: 0.0396

Query block: Try the variant U9G G68C
Result block: 1.02

Query block: Try the variant C22A A83C
Result block: 0.147

Query block: Try the variant C36U G81C
Result block: 0.12

Query block: Try the variant C14U C18U
Result block: 0.591

Query block: Try the variant A51C A78C
Result block: 0.277

Query block: Try the variant G35C U69C
Result block: 0.291

Query block: Try the variant U9C A87U
Result block: 1.06

Query block: Try the variant U65G A83U
Result block: 0.571

Query block: Try the variant G11A C14G
Result block: 0.0346

Query block: Try the variant C58A A87U
Result block: 1

Query block: Try the variant C30G G38U
Result block: 0.114

Query block: Try the variant G59C G67A
Result block: 1.06

Query block: Try the variant A77U C84U
Result block: 0.489

Query block: Try the variant G1U U47A
Result block: 0.295

Query block: Try the variant C49G A70G
Result block: 0.733

Query block: Try the variant C3G A56U
Result block: 0.769

Query block: Try the variant A43C G53C
Result block: 0.63

Query block: Try the variant U12C U79G
Result block: 0.0791

Query block: Try the variant G10A A71U
Result block: 0.712

Query block: Try the variant C30U C85U
Result block: 0.787

Query block: Try the variant G39A C75U
Result block: 0.178

Query block: Try the variant C48A A51G
Result block: 0.903

Query block: Try the variant G39C C57G
Result block: 0.415

Query block: Try the variant A43G C75U
Result block: 0.0573

Query block: Try the variant C49G C64A
Result block: 0.375

Query block: Try the variant C15G A45U
Result block: 0.594

Query block: Try the variant A42G G59U
Result block: 0.608

Query block: Try the variant G31A C58G
Result block: 0.393

Query block: Try the variant U46C G50U
Result block: 0.779

Query block: Try the variant U20A C49A
Result block: 0

Query block: Try the variant U27A G40C
Result block: 0.151

Query block: Try the variant C63A G80U
Result block: 0.2

Query block: Try the variant C18A C64A
Result block: 0.136

Query block: Try the variant C15G C30G
Result block: 0.317

Query block: Try the variant C7U G10C
Result block: 0.266

Query block: Try the variant C15G A83C
Result block: 0.249

Query block: Try the variant U47C C64A
Result block: 0.567

Query block: Try the variant C41G A87G
Result block: 0.772

Query block: Try the variant C66A C84G
Result block: 0.692
